# assay.target: T1, human TL1A (human, UniProt O95150 72-251, limits assumed)
# T1 sequence (looked up): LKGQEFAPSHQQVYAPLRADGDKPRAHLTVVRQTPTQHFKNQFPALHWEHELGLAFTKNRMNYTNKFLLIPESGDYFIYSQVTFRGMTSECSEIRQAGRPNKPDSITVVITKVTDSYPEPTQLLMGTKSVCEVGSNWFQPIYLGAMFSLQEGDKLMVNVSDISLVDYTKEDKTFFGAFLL
# protocol.notes: cell-based or functional assay
Quick rule for you: NF-kB IC50 nM, huTL1A (0.2 nM) under 0.2 nM gets TRUE, anything else gets FALSE.

binder="anti-TL1A Fab 9C8 (Fab, V domains shown, Fab fragment; the Fab's constant parts are not; also called 9C8 Fab; PL-39197) VH: QVQLQESGPGLVKPSETLSLTCTVSGGSISSYFWSWIRQPPGKGLEWIGYIYYSGNTKYNPSLKSRVTISIDTSKNQFSLKLSSVTAADTAVYYCARETGSYYGFDYWGQGTLVTVSS VL: DIQMTQSPSSLSASVGDRVTITCRASQSINNYLNWYQQRPGKAPKLLIYAASSLQSGVPSRFSGSGSGTDFTLTISSLQPGDFATYYCQQSYSTPRTFGQGTKLEIK" category_label=FALSE
binder="anti-TL1A mAb 2G11 (antibody, human IgG1, kappa, N297G, V domains shown, also called iPS 285396) VH: QVQLQESGPGLVKPSETLSLTCTVSGGSISSYFWSWIRQPPGKGLEWIGYIYYSGSTNYNPSLKSRVTMSIDTSKNQFSLKLSSVTAADTAVYYCAREIGSYYGFDYWGQGALVTVSS VL: DIQMTQSPSSLSASVGDRVTITCRASQSINNYLNWYQQKPGIAPKLLIYATSSLQSGVPSRFSGSGSGTDFSLTISSLQPEDFATYFCQQSYSTPRTFGQGTKVEIKR" category_label=FALSE
binder="anti-TL1A mAb 9C8 (antibody, human IgG1, kappa, N297G, V domains shown, also called PL-39116; iPS 285412) VH: QVQLQESGPGLVKPSETLSLTCTVSGGSISSYFWSWIRQPPGKGLEWIGYIYYSGNTKYNPSLKSRVTISIDTSKNQFSLKLSSVTAADTAVYYCARETGSYYGFDYWGQGTLVTVSS VL: DIQMTQSPSSLSASVGDRVTITCRASQSINNYLNWYQQRPGKAPKLLIYAASSLQSGVPSRFSGSGSGTDFTLTISSLQPGDFATYYCQQSYSTPRTFGQGTKLEIKR" category_label=TRUE
binder="anti-TL1A Fab 3C6 (Fab, V domains shown, Fab fragment; the Fab's constant parts are not; also called 3C6 Fab; PL-39193) VH: QVQLVESGGGVVQPGRSLRLSCAASGFTFSSYGMHWVRQAPGKGLEWVAVISYDGNNKLYTDSVKGRFTISRDDSKSTLYLQMNSLRAEDTAVYYCARDPTVTLYYYYGMDVWGQGTTVTVSS VL: DIQMTQSPSSLSASVGDRVTITCRTSQDIRDDLGWYQQKPGKAPKRLIYDASSLQSGVPSRFSGSGSGTEFTLTISSLQPEDFATYYCLQHNSYPPTFGQGTKVEIK" category_label=TRUE
binder="anti-TL1A mAb 17E9 (antibody, human IgG1, kappa, N297G, V domains shown, also called PL-39113; iPS 284078) VH: QVQLVESGGGVVQPGRSLRLSCAASGFTLSSYGMHWVRQAPGKGLEWVAVMSYDGNNKLYADSVKGRFTISRDNSKKTLYLQMNSLRAEDTAVYYCARDETETLYYYYGIDVWGQGTTVTVSS VL: DIQMTQSPSSLSASVGDRVTITCRASQGISNDLAWYQQKPGKAPKRLIFAASSLQSGVPSRFSGSGSGTEFTLTISSLQPEDFATYYCLQHNSYPPTFGGGTKVEIKR" category_label=TRUE
binder="anti-TL1A Fab 2G11 (Fab, V domains shown, Fab fragment; the Fab's constant parts are not; also called 2G11 Fab; PL-38025) VH: QVQLQESGPGLVKPSETLSLTCTVSGGSISSYFWSWIRQPPGKGLEWIGYIYYSGSTNYNPSLKSRVTMSIDTSKNQFSLKLSSVTAADTAVYYCAREIGSYYGFDYWGQGALVTVSS VL: DIQMTQSPSSLSASVGDRVTITCRASQSINNYLNWYQQKPGIAPKLLIYATSSLQSGVPSRFSGSGSGTDFSLTISSLQPEDFATYFCQQSYSTPRTFGQGTKVEIK" category_label=FALSE
binder="anti-TL1A Fab 17E9 (Fab, V domains shown, Fab fragment; the Fab's constant parts are not; also called 17E9 Fab; PL-39194) VH: QVQLVESGGGVVQPGRSLRLSCAASGFTLSSYGMHWVRQAPGKGLEWVAVMSYDGNNKLYADSVKGRFTISRDNSKKTLYLQMNSLRAEDTAVYYCARDETETLYYYYGIDVWGQGTTVTVSS VL: DIQMTQSPSSLSASVGDRVTITCRASQGISNDLAWYQQKPGKAPKRLIFAASSLQSGVPSRFSGSGSGTEFTLTISSLQPEDFATYYCLQHNSYPPTFGGGTKVEIK" category_label=FALSE

Now turn to the next binder.
[in] # check: NF-kB IC50 nM, huTL1A (0.2 nM) < 0.2 nM for anti-TL1A mAb 3C6 (antibody, human IgG1, kappa, N297G, V domains shown, also called PL-39112; iPS 284112) VH: QVQLVESGGGVVQPGRSLRLSCAASGFTFSSYGMHWVRQAPGKGLEWVAVISYDGNNKLYTDSVKGRFTISRDDSKSTLYLQMNSLRAEDTAVYYCARDPTVTLYYYYGMDVWGQGTTVTVSS VL: DIQMTQSPSSLSASVGDRVTITCRTSQDIRDDLGWYQQKPGKAPKRLIYDASSLQSGVPSRFSGSGSGTEFTLTISSLQPEDFATYYCLQHNSYPPTFGQGTKVEIKR
[out] TRUE
